# Tested on: P. aeruginosa PAE UFR92
# ASSAY SUMMARY: MIC of compounds alone, broth microdilution (CLSI)
# Assay type: cell-based
# CONDITION NOTES: Pseudomonas aeruginosa, PAEUFR92, read-out: MIC alone PAE UFR92
Known MIC of a selection of compounds
Express your answer in µg/mL, writing the number without its unit.

> print(dat)
                                   compound  scale.unit  value.measured
1  NCc1nc2c(s1)C1CN(C2)C(=O)N1OS(=O)(=O)O (centres unmarked)       µg/mL              32

Pending compound:
Record summary for N=C(N)NCCNC(=O)c1nc2c(s1)C1CN(C2)C(=O)N1OS(=O)(=O)O (centres unmarked) : reported MIC = 8

###

Here we list compounds with their recorded log10 MIC when tested on E. coli ECO UFR39.
Please note: log10 values; quantity MIC; unit mg/L.

Some compounds with recorded log10 MIC:
> print(dat)
                                   compound  recorded.endpoint  value.measured
1  N=C(N)NCc1nc2c(s1)C1CN(C2)C(=O)N1OS(=O)(=O)O (stereo not drawn)          log10 MIC           -0.90
2  CC(=O)Nc1nc2c(s1)C1CN(C2)C(=O)N1OS(=O)(=O)[O-].[Na+] (stereo not drawn)          log10 MIC            0.60
3  NCc1nc2c(s1)C1CN(C2)C(=O)N1OS(=O)(=O)O (stereo not drawn)          log10 MIC           -0.60
4  NCCNC(=O)c1nc2c(s1)C1CN(C2)C(=O)N1S(=O)(=O)O (stereo not drawn)          log10 MIC           -0.30
5  CN(C)C(=O)[C@@H]1c2c(CNC(=N)N)csc2[C@H]2CN1C(=O)N2OS(=O)(=O)O.O=C(O)C(F)(F)F (relative stereo)          log10 MIC            1.51
6  N=C(N)NCCNC(=O)c1nc2c(s1)C1CN(C2)C(=O)N1OS(=O)(=O)O (stereo not drawn)          log10 MIC            0.30

Record summary for O=C1N2Cc3ccsc3C(C2)N1OS(=O)(=O)[O-].[Na+] (stereo not drawn) : reported log10 MIC = 0.60

###

# Tested on: K. pneumoniae KPN 121206
Known MIC of a selection of compounds

Some compounds with recorded MIC:
> print(dat)
                                   compound  value.measured
1  CN(C)C(=O)[C@@H]1c2c(CNC(=N)N)csc2[C@H]2CN1C(=O)N2OS(=O)(=O)O.O=C(O)C(F)(F)F (relative stereo)        32 µg/mL
2  NCCNC(=O)c1nc2c(s1)C1CN(C2)C(=O)N1S(=O)(=O)O (centres unmarked)        32 µg/mL

Record summary for O=C(Nc1nc2c(s1)C1CN(C2)C(=O)N1OS(=O)(=O)[O-])OCc1ccccc1.[Na+] (centres unmarked) : reported MIC = > 32 µg/mL

Record summary for CC(=O)Nc1nc2c(s1)C1CN(C2)C(=O)N1OS(=O)(=O)[O-].[Na+] (centres unmarked) : reported MIC = > 32 µg/mL

###

Here we list molecules with their recorded MIC when tested on E. coli ECO 190317.
Express your answer in µg/mL, writing the number without its unit.

Some molecules with recorded MIC:
> print(dat)
                                   molecule  value.measured
1  NCc1nc2c(s1)C1CN(C2)C(=O)N1OS(=O)(=O)O (stereo not shown)            0.25
2  CC(=O)Nc1nc2c(s1)C1CN(C2)C(=O)N1OS(=O)(=O)[O-].[Na+] (stereo not shown)               2

Pending molecule:
Record summary for CN(C)C(=O)[C@@H]1c2c(CNC(=N)N)csc2[C@H]2CN1C(=O)N2OS(=O)(=O)O.O=C(O)C(F)(F)F (relative stereo) : reported MIC = 2

###

# Test system: P. aeruginosa PAE UFR92
# ASSAY SUMMARY: MIC of compounds alone, broth microdilution (CLSI)
# Format: cell-based
# CONDITION NOTES: Pseudomonas aeruginosa, PAEUFR92, read-out: MIC alone PAE UFR92
RECORDED ENDPOINT: MIC (µg/mL)
Express your answer in µg/mL, writing the number without its unit.

> print(dat)
                                   compound  value.measured
1  NCCNC(=O)c1nc2c(s1)C1CN(C2)C(=O)N1S(=O)(=O)O (stereo not shown)               8
2  N=C(N)NCc1nc2c(s1)C1CN(C2)C(=O)N1OS(=O)(=O)O (stereo not shown)               4

Record summary for CC(C)(O/N=C(\C(=O)N[C@@H]1C(=O)N2C(C(=O)[O-])=C(C[n+]3ccccc3)CS[C@H]12)c1csc(N)n1)C(=O)O : reported MIC = 32

Record summary for CN(C)C(=O)[C@@H]1c2c(CNC(=N)N)csc2[C@H]2CN1C(=O)N2OS(=O)(=O)O.O=C(O)C(F)(F)F (relative stereo) : reported MIC = 8

Record summary for CN(C)C(=O)[C@@H]1c2c(CCNC(=N)N)csc2C2CN1C(=O)N2OS(=O)(=O)O (stereo in doubt) : reported MIC = 8

Record summary for CN(C)C(=O)[C@H]1c2nc(C(=O)NCCNC(=N)N)sc2[C@@H]2CN1C(=O)N2OS(=O)(=O)O (relative stereo) : reported MIC = 32

###

Here we list molecules with their recorded MIC when tested on E. cloacae ECL P99.
Express your answer in µg/mL, writing the number without its unit.

Some molecules with recorded MIC:
> print(dat)
                                   molecule  recorded.endpoint  scale.unit  value.measured
1  CN(C)C(=O)[C@@H]1c2c(CCNC(=N)N)csc2C2CN1C(=O)N2OS(=O)(=O)O (stereo in doubt)                MIC       µg/mL              16
2  O=C1N2Cc3ccsc3C(C2)N1OS(=O)(=O)[O-].[Na+] (stereo not drawn)                MIC       µg/mL               8
3  N=C(N)NCc1nc2c(s1)C1CN(C2)C(=O)N1OS(=O)(=O)O (stereo not drawn)                MIC       µg/mL               1
4  N=C(N)NCCNC(=O)c1nc2c(s1)C1CN(C2)C(=O)N1OS(=O)(=O)O (stereo not drawn)                MIC       µg/mL             0.5
5  CC(C)(O/N=C(\C(=O)N[C@@H]1C(=O)N2C(C(=O)[O-])=C(C[n+]3ccccc3)CS[C@H]12)c1csc(N)n1)C(=O)O                MIC       µg/mL             128
6  NCc1nc2c(s1)C1CN(C2)C(=O)N1OS(=O)(=O)O (stereo not drawn)                MIC       µg/mL               1
7  NCCNC(=O)c1nc2c(s1)C1CN(C2)C(=O)N1S(=O)(=O)O (stereo not drawn)                MIC       µg/mL               2
8  CN(C)C(=O)[C@@H]1c2c(CNC(=N)N)csc2[C@H]2CN1C(=O)N2OS(=O)(=O)O.O=C(O)C(F)(F)F (relative stereo)                MIC       µg/mL              16

Summary: CC(=O)Nc1nc2c(s1)C1CN(C2)C(=O)N1OS(=O)(=O)[O-].[Na+] (stereo not drawn) , E. cloacae ECL P99, MIC = 16

###

# Test system: K. pneumoniae KPN 121206
RECORDED ENDPOINT: MIC (µg/mL)
Express your answer in µg/mL, writing the number without its unit.

> print(dat)
                                   molecule  value.measured
1  NCc1nc2c(s1)C1CN(C2)C(=O)N1OS(=O)(=O)O (stereo not shown)              32

Summary: N=C(N)NCCNC(=O)c1nc2c(s1)C1CN(C2)C(=O)N1OS(=O)(=O)O (stereo not shown) , K. pneumoniae KPN 121206, MIC = 16

###

# System: E. coli ECO 190317
Mark Condition met only when MIC stays strictly below 0.5 µg/mL. Values equal to the cut-off are Condition not met.

Consider the following illustrative entries.
> print(dat)
                                   compound  qualitative.label
1  N=C(N)NCc1nc2c(s1)C1CN(C2)C(=O)N1OS(=O)(=O)O (centres unmarked)      Condition met
2  CC(C)(O/N=C(\C(=O)N[C@@H]1C(=O)N2C(C(=O)[O-])=C(C[n+]3ccccc3)CS[C@H]12)c1csc(N)n1)C(=O)O  Condition not met
3  CCOC(=O)[C@@H]1c2c(-c3ccc(F)cc3)csc2[C@@H]2CN1C(=O)N2OS(=O)(=O)[O-].[Na+]  Condition not met
4  CN(C)C(=O)[C@H]1c2nc(C(=O)NCCNC(=N)N)sc2[C@@H]2CN1C(=O)N2OS(=O)(=O)O (relative stereo)  Condition not met
5  CN(C)C(=O)[C@@H]1c2c(CCNC(=N)N)csc2C2CN1C(=O)N2OS(=O)(=O)O (stereo in doubt)  Condition not met
6  O=C1N2Cc3ccsc3C(C2)N1OS(=O)(=O)[O-].[Na+] (centres unmarked)  Condition not met

Asked: For this compound, is MIC lower than 0.5 µg/mL? NCCNC(=O)c1nc2c(s1)C1CN(C2)C(=O)N1S(=O)(=O)O (centres unmarked)
Given back: Condition met
